assay-target: p53 Y220C mutant protein (amino acid residues 94-293) (Homo sapiens, UniProt P04637, Y220C)
Construct: p53 Y220C mutant protein (amino acid residues 94-293)
experiment-description: Surface Plasmon Resonance (SPR) assay, Kd_kinetic
Format: binding
measurement-context: SPR, kinetic KD, p53 Y220C; read-out: SPR P53 Y220C KD kinetic
Catalogue of Kd values

Past entries and their recorded results:
- CNC(=O)c1ccc(OC)c(NCC#Cc2cc3c(N[C@@H]4CN(C)C[C@@H]4F)nccn3c2SC(F)(F)F)c1 [Example 208]: < 10 nM
- COc1cc(S(C)(=O)=O)ccc1NCC#Cc1nc2c(NC3CCN(C4CC4)CC3)cccn2c1CC(F)(F)F [Example 7]: 10 to 100 nM
- COc1cc(C(=O)NC2CC2)ccc1NCC#Cc1nc2c(N[C@@H]3CCN(C)C[C@@H]3F)cccn2c1CC(F)(F)F [Example 49]: 10 to 100 nM
- CNC(=O)c1ccc(NCC#Cc2nc3c(N[C@@H]4CCOC[C@@H]4F)cccn3c2SC(F)(F)F)c(OC)c1 [Example 101]: < 10 nM
- CNC(=O)c1ccc(NCC#Cc2nc3c(N[C@@H]4CCN(CC(C)(C)O)C[C@@H]4F)cccn3c2SC(F)(F)F)c(OC)c1 [Example 164]: < 10 nM
- COc1cc(S(=O)(=O)C(C)C)ccc1NCC#Cc1nc2c(N[C@@H]3CCN(C)C[C@@H]3F)cccn2c1CC(F)(F)F [Example 77]: < 10 nM
- COc1cc(S(C)(=O)=O)ccc1NCC#Cc1nc2c(N[C@@H]3CCNC[C@@H]3F)cccn2c1SC(F)(F)F [Example 83]: < 10 nM
- COc1cc2n[nH]cc2cc1NCC#Cc1nc2c(N[C@@H]3CCN(C)C[C@@H]3F)cccn2c1SC(F)(F)F [Example 128]: < 10 nM
- CNC(=O)Nc1cc(NC2CCN(C)CC2)c2nc(C#CCNc3ccc(C(=O)NC)cc3OC)c(CC(F)(F)F)n2c1 [Example 44]: 100 to 1000 nM
- CNC(=O)c1ccc(NCC#Cc2nc3c(NCC4(F)CN(C)C4)cccn3c2SC(F)(F)F)c(OC)c1 [Example 181]: 10 to 100 nM

Can you look up the measured Kd of CNC(=O)c1ccc(NCC#Cc2nc3c(N[C@H]4CCc5ncnn5C4)cccn3c2SC(F)(F)F)c(OC)c1 (stereo in doubt) [Example 189] for me?
10 to 100 nM

What would you report for COc1cc2c(cc1NCC#Cc1nc3c(N[C@@H]4CCN(C)C[C@@H]4F)cccn3c1CC(F)(F)F)CNC2=O [Example 95] ?
< 10 nM

Also CNC(=O)c1ccc(NCC#Cc2nc3c(NC4CCN(C)CC4)cc(NC(=O)OC(C)(C)C)cn3c2CC(F)(F)F)c(OC)c1 [Example 39] , if possible.
> 1000 nM

// repeat for CNC(=O)c1ccc(OC)c(NCC#Cc2nc3c(N[C@@H]4CCNC[C@@H]4F)cccn3c2CC(F)(F)F)c1 [Example 222] and report
< 10 nM
